// provenance: patent EP3436445B1

# Target Entity: FBXL10 (Homo sapiens)
# Construct: purchased BPS Bioscience 50120
# Sequence (Q8NHM5 1-650): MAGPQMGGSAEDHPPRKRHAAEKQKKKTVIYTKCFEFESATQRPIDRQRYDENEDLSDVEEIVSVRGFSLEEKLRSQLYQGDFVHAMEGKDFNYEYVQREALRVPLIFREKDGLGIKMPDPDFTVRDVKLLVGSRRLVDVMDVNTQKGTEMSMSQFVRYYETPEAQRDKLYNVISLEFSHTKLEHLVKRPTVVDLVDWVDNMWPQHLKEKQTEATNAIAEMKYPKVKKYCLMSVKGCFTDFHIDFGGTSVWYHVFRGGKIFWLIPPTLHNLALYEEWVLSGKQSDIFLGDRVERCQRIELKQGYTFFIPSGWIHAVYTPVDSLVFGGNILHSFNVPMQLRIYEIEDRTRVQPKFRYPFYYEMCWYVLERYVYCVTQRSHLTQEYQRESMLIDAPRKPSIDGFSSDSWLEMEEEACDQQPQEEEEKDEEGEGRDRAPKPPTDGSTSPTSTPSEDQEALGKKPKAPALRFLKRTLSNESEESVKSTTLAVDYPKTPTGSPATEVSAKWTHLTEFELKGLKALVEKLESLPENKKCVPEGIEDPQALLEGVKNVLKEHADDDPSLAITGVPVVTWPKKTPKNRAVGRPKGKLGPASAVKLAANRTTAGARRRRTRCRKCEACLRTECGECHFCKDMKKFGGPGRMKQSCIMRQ
# Assay Method Text: FBXL10 in vitro enzyme inhibition assay (AlphaScreen)
# Assay type: biochemical
# Measurement Parameters: Table 3; 0.3 nM FBXL10, H3K36me2-biotin labeled peptide

Molecule | IC50
CC(Cc1ccccc1)n1cnc(-c2cc(-c3c[nH]nn3)ccn2)c1 (stereo not shown) | 100 to 1000 nM
Clc1cc(Cl)cc(-n2cnc(-c3cc4[nH]nnc4cn3)c2)c1 | 100 to 1000 nM
Clc1ccccc1Cn1cnc(-c2cc3[nH]nnc3cn2)c1 | ≤ 100 nM
c1ccc(Cn2cnc(-c3cc4[nH]nnc4cn3)c2)cc1 | ≤ 100 nM
Clc1ccc(Cn2cnc(-c3cc4[nH]nnc4cn3)c2)cc1Cl | ≤ 100 nM
c1nc(-c2cn(CC3CC3)cn2)cc2[nH]nnc12 | ≤ 100 nM
Clc1ccccc1-n1cnc(-c2cc3[nH]nnc3cn2)c1 | ≤ 100 nM
Clc1ccc(-n2cnc(-c3cc4[nH]nnc4cn3)c2)cc1 | ≤ 100 nM
Cn1cnc(-c2cc3[nH]nnc3cn2)c1-c1ccc(F)cc1 | 100 to 1000 nM
Clc1cccc(-n2cnc(-c3cc4[nH]nnc4cn3)c2)c1 | 100 to 1000 nM
